# System: MCC-13
# PROTOCOL DESCRIPTION: qHTS assay to identify novel small-molecules to repurpose for Merkel cell carcinoma treatment (AID 1296009); note: nearly all actives have a fitted effect of over 60% in size
# TEST CONDITIONS: MCC and control cell lines, CellTiter-Glo viability, 72 h; series mostly up to 46 µM
Inconclusive results are not listed. Calls of active or inactive are those of the source. Calls come from the whole dose curve; as a rule, active = well fitted inhibition curve with a large enough effect; inconclusive = small, poorly fitted or top-dose-only effect; inactive = flat fitted curve, though single readings scatter.
Mark one answer only. Choices: true = active, false = inactive

QUERY: Can you look up the reported call for C[C@H]1O[C@H](O[C@H]2[C@H](O)[C@@H](O)[C@@H](O[C@H]3[C@H](O)[C@@H](O)C(O)O[C@H]3CO)O[C@H]2CO)[C@H](O)[C@@H](O)[C@H]1N[C@H]1C=C(CO)[C@@H](O)[C@H](O)[C@@H]1O (some centres undefined) for me?
RESULT: false

QUERY: Can you look up the reported call for C=C[C@@H]1CN2CCC1C[C@H]2[C@H](O)c1ccnc2ccc(OC)cc12 (some centres undefined) for me?
RESULT: false

QUERY: Can you look up the reported call for OCCNC1CCCc2c1[nH]c1ccc(-c3ccccc3)cc21 (centres undefined) for me?
RESULT: false

QUERY: Can you look up the reported call for `C[C@H]1COc2c(N3CCN(C)CC3)c(F)cc3c(=O)c(C(=O)O)cn1c23` for me?
RESULT: false

QUERY: Can you look up the reported call for C[C@](Cc1c[nH]c2ccccc12)(NC(=O)OC1C2CC3CC(C2)CC1C3)C(=O)NC[C@H](NC(=O)CCC(=O)O)c1ccccc1 (some centres undefined) for me?
RESULT: false

QUERY: Can you look up the reported call for C[C@H](CCC(=O)O)[C@H]1CCC2C3C[C@H](O)[C@@H]4C[C@H](O)CC[C@]4(C)C3CC[C@@]21C (some centres undefined) for me?
RESULT: false

QUERY: Can you look up the reported call for `O=C(Nc1ccc(Oc2ccnc3[nH]ccc23)c(F)c1)c1cccn(-c2ccc(F)cc2)c1=O` for me?
RESULT: false

QUERY: Can you look up the reported call for `C[C@]12C=CC(=O)N[C@@H]1CC[C@H]1[C@H]3CC[C@@H](C(=O)Nc4cc(C(F)(F)F)ccc4C(F)(F)F)[C@@]3(C)CC[C@@H]12` for me?
RESULT: false

QUERY: Can you look up the reported call for `CN(C)c1ccc(C(=O)NCCCCCCC(=O)NO)cc1` for me?
RESULT: true

All figures here come from PubChem BioAssay (NCATS).
